These entries and their values trace back to PubChem BioAssay.

assay: stimulators of insulin release from INS-1E, primary screen, cell-based, 5 mM glucose, NPC library (AID 1117329); conditions: rat INS-1E insulin secretion, at 10 µM, hits give high values; further: reference of the scale not given here
Reported insulin secretion stimulation by item:
Report the figure in % without appending any unit label.

>  <Compound>
C=Cc1c(C)c2cc3nc(cc4[nH]c(cc5nc(cc1[nH]2)C(C)=C5CCC(=O)O)c(CCC(=O)OC)c4C)[C@@]1(C)C3=CC=C(C(=O)OC)[C@@H]1C(=O)OC

>  <Unit Label>
%

>  <Quantitative Result>
1.5

$$$$

## Task Consider the compound CCN(CC)C(=O)C1CN2CCc3cc(OC)c(OC)cc3C2CC1OC(C)=O (centres undefined) . State its measured insulin secretion stimulation.
## Result 3.5

## Task Consider the compound `CC(C)OP(=O)(CP(=O)(OC(C)C)OC(C)C)OC(C)C` . State its measured insulin secretion stimulation.
## Result 0.8

## Task Consider the compound `CCOC(=O)[C@H](CCc1ccccc1)N[C@H]1CCCN2CCC[C@@H](C(=O)O)N2C1=O` . State its measured insulin secretion stimulation.
## Result -0.4

----------
system: Hepatitis C virus NS3 helicase; experiment: HCV NS3 helicase inhibitors, primary screen, biochemical, fluorescence polarization, NIH Clinical Collection (AID 743270); details: NS3 helicase binding to Cy5-dT15 DNA, hits give high values, concentration not given here
Reported inhibition by item:
Report the figure in % without appending any unit label.

Please review the entries below; each comes with its answer.
>  <Compound>
O=c1n(CCCN2CCN(c3cccc(Cl)c3)CC2)nc2ccccn12

>  <Unit Label>
%

>  <inhibition>
-6.73

$$$$
>  <Compound>
COc1c(N2CCNC(C)C2)c(F)cc2c(=O)c(C(=O)O)cn(C3CC3)c12 (stereo not given)

>  <Unit Label>
%

>  <inhibition>
-8.64

$$$$
>  <Compound>
CC1=C(CC(=O)O)c2cc(F)ccc2/C1=C\c1ccc(S(C)=O)cc1 (stereo not given)

>  <Unit Label>
%

>  <inhibition>
-7.73

$$$$
>  <Compound>
COC(=O)Nc1nc2ccc(C(=O)c3ccccc3)cc2[nH]1

>  <Unit Label>
%

>  <inhibition>
-15.9

$$$$
>  <Compound>
CC[C@H](C)C(=O)O[C@H]1C[C@H](O)C=C2C=C[C@H](C)[C@H](CC[C@@H](O)C[C@@H](O)CC(=O)O)[C@H]21

>  <Unit Label>
%

>  <inhibition>
-3.56

$$$$

## Task Consider the compound `Clc1ccc2c(c1)C(N1CCNCC1)=Nc1ccccc1O2` . State its measured inhibition.
## Result -4.09

## Task Consider the compound `O=c1[nH]cc(F)c(=O)[nH]1` . State its measured inhibition.
## Result -3.18

## Task Consider the compound CN(CCOc1ccc(CC2SC(=O)NC2=O)cc1)c1ccccn1 (stereo not given) . State its measured inhibition.
## Result -1.19

## Task Consider the compound `N[C@@H](C(=O)N[C@@H]1C(=O)N2C(C(=O)O)=C(Cl)CS[C@H]12)c1ccccc1` . State its measured inhibition.
## Result -4.59

## Task Consider the compound `CC(C)Oc1ccc2c(=O)c(-c3ccccc3)coc2c1` . State its measured inhibition.
## Result 3.56

----------
test: inhibition of endothelial tube formation, primary screen, imaging, VEGF stimulated, CD31 staining, tube area, NPC library (AID 1117340); conditions: VEGF-stimulated ADSC/ECFC co-culture, at 10 µM
Calls of active or inactive are those of the source.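 Rule for the calls: active = compound that reduces growth-factor-driven endothelial tube area in a mixed cell culture, no cutoff stated; inactive = the rest.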
// allowed return values: active, inactive

>  <Molecule>
COc1cc(C(=S)N2CCOCC2)cc(OC)c1OC

>  <Category Label>
inactive

$$$$

## Task What is the recorded call for this molecule in the test? `O=C1C(c2[nH]c3ccccc3c2O)=Nc2ccccc21`
## Result inactive

## Task What is the recorded call for this molecule in the test? CC(C(O)c1ccccc1)N(C)CCOC(c1ccccc1)c1ccccc1 (stereo not given)
## Result inactive
